The measurements presented in this section are drawn from patent US11891365B2.

Assign pIC50 to each entry below.
- target under test: Full length human recombinant HDAC6 protein (Homo sapiens)
- Sequence (Q9UBN7 1-1215): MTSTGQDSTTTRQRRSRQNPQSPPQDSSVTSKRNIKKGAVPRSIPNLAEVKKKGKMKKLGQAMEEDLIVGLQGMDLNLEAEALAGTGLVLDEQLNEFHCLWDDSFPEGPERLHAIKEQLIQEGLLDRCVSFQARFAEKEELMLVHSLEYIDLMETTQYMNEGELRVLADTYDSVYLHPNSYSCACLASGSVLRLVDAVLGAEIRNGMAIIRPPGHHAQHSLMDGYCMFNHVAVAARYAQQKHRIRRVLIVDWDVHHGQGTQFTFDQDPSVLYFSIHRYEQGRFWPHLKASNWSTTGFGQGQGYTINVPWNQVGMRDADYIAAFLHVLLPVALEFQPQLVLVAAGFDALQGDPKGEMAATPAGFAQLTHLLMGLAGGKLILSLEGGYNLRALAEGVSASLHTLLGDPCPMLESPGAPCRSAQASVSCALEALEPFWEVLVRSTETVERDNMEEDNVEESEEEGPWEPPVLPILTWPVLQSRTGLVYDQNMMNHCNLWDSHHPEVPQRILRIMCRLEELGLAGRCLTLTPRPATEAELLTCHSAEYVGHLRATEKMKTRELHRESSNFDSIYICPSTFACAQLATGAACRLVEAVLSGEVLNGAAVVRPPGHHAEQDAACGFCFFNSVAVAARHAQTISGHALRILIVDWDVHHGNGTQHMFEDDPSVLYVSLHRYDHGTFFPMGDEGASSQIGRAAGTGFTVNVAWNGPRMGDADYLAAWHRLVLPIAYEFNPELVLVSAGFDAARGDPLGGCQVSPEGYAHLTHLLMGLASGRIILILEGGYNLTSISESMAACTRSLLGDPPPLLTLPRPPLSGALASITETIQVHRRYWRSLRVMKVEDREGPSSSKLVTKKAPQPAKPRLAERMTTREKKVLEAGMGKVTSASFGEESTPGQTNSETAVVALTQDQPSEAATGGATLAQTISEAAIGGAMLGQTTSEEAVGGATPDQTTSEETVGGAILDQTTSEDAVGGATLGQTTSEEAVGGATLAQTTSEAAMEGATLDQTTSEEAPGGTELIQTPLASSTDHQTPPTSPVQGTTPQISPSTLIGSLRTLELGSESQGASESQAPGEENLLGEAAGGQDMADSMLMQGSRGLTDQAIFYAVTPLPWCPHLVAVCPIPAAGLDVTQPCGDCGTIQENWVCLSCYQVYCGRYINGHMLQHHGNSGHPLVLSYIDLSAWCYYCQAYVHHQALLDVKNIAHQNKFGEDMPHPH
- assay remarks: In vitro histone deacetylase assay: enzymatic HDAC6 electrophoretic mobility shift assay
- applied conditions: 1 nM enzyme, 2 μM peptide substrate RHKK(Ac)-NH2, 25° C., 12 concentrations; read-out: Inhibitory Concentration (IC50) Values against HDAC6, Activity Range
pIC50: −log10 of the molar value.

Incoming: Answer with the recorded pIC50 of CC(=O)N1Cc2ccc(C(=O)NO)cc2OC[C@@H]1C(C)C only.
Outgoing: 6.30 to 7.00

Incoming: Answer with the recorded pIC50 of C[C@H]1c2ccc(C(=O)NO)cc2OCCN1C(=O)[C@@]1(C)CCCOC1 only.
Outgoing: ≥ 7.00

Incoming: Answer with the recorded pIC50 of C[C@H]1COc2cc(C(=O)NO)ccc2CN1C(=O)C(C)(C)Cc1ccc(F)cc1 only.
Outgoing: ≥ 7.00

Incoming: Answer with the recorded pIC50 of O=C(NO)c1ccc2c(c1)OCCN(C(=O)CCO)C2 only.
Outgoing: < 6.30

Incoming: Answer with the recorded pIC50 of COc1ccc(OCC(=O)N2CCOc3cc(C(=O)NO)ccc3C2)cc1 only.
Outgoing: ≥ 7.00

Incoming: Answer with the recorded pIC50 of C[C@H]1COc2cc(C(=O)NO)ccc2CN1C(=O)CCOC1CCOCC1 only.
Outgoing: 6.30 to 7.00

Incoming: Answer with the recorded pIC50 of CC(C)COCC(=O)N1CCOc2cc(C(=O)NO)ccc2C1 only.
Outgoing: < 6.30

Incoming: Answer with the recorded pIC50 of C[C@@H]1c2cc(C(=O)NO)ccc2OCCN1C(=O)C1(C)CCC1 only.
Outgoing: ≥ 7.00

Incoming: Answer with the recorded pIC50 of C[C@H]1COc2cc(C(=O)NO)ccc2CN1C(=O)C1CCCC1 only.
Outgoing: ≥ 7.00

Incoming: Answer with the recorded pIC50 of O=C(NO)c1ccc2c(c1)OCCN(C(=O)C1CCC3(CCNCC3)C1)C2 (centres unmarked) only.
Outgoing: ≥ 7.00

Incoming: Answer with the recorded pIC50 of C[C@H]1COc2cc(C(=O)NO)ccc2CN1C(=O)c1ccc(F)cc1 only.
Outgoing: ≥ 7.00

Incoming: Answer with the recorded pIC50 of CC(=O)N1Cc2ccc(C(=O)NO)cc2OC[C@H]1C only.
Outgoing: < 6.30

Incoming: Answer with the recorded pIC50 of Cn1cccc1C(=O)N1CCOc2cc(C(=O)NO)ccc2C1 only.
Outgoing: ≥ 7.00

Incoming: Answer with the recorded pIC50 of CC(C)(C)OC(=O)N1CC2(CC(C(=O)N3CCOc4cc(C(=O)NO)ccc4C3)CS2(=O)=O)C1 (centres unmarked) only.
Outgoing: 6.30 to 7.00

Incoming: Answer with the recorded pIC50 of C[C@H]1COc2cc(C(=O)NO)ccc2CN1C(=O)[C@H]1CC2CCC1O2 (some centres unmarked) only.
Outgoing: ≥ 7.00

Incoming: Answer with the recorded pIC50 of CC(C)[C@@H]1c2ccc(C(=O)NO)cc2OCCN1C(=O)C1COC1 only.
Outgoing: < 6.30

Incoming: Answer with the recorded pIC50 of COc1ccc(C2(C(=O)N3CCOc4cc(C(=O)NO)ccc4C3)CC2)cc1 only.
Outgoing: ≥ 7.00

Incoming: Answer with the recorded pIC50 of CC(C)(C)OC(=O)N1CCC2(CCC(C(=O)N3CCOc4cc(C(=O)NO)ccc4C3)CC2)CC1 only.
Outgoing: 6.30 to 7.00

Incoming: Answer with the recorded pIC50 of C[C@H]1COc2cc(C(=O)NO)ccc2CN1C(=O)C1(C)CCCO1 (some centres unmarked) only.
Outgoing: ≥ 7.00

Incoming: Answer with the recorded pIC50 of COCC1(C(=O)N2Cc3ccc(C(=O)NO)cc3OC[C@@H]2C)CCC1 only.
Outgoing: ≥ 7.00

Incoming: Answer with the recorded pIC50 of CC(C)[C@H]1COc2cc(C(=O)NO)ccc2CN1C(=O)CC1CCOCC1 only.
Outgoing: 6.30 to 7.00

Incoming: Answer with the recorded pIC50 of O=C(NO)c1ccc2c(c1)OCCN(C(=O)C1(c3ccccc3C(F)(F)F)CC1)C2 only.
Outgoing: ≥ 7.00

Incoming: Answer with the recorded pIC50 of O=C(NO)c1ccc2c(c1)OCCN(C(=O)C(c1ccccc1)n1cccn1)C2 (centres unmarked) only.
Outgoing: 6.30 to 7.00

Incoming: Answer with the recorded pIC50 of COC1(C(=O)N2Cc3ccc(C(=O)NO)cc3OC[C@@H]2C)CCCC1 only.
Outgoing: ≥ 7.00

Incoming: Answer with the recorded pIC50 of COc1ccc(CC(=O)N2CC(=O)Nc3ccc(C(=O)NO)cc3C2)cc1 only.
Outgoing: < 6.30

Incoming: Answer with the recorded pIC50 of CC(Cc1ccccc1)C(=O)N1CCOc2cc(C(=O)NO)ccc2C1 (centres unmarked) only.
Outgoing: ≥ 7.00

Incoming: Answer with the recorded pIC50 of CC1(C(=O)N2CCOc3cc(C(=O)NO)ccc3C2)CCC1 only.
Outgoing: ≥ 7.00

Incoming: Answer with the recorded pIC50 of CO[C@H]1C[C@H](C(=O)N2Cc3ccc(C(=O)NO)cc3OC[C@@H]2C)C1 only.
Outgoing: ≥ 7.00

Incoming: Answer with the recorded pIC50 of CC(C)[C@@H]1CN(C(=O)C2CCOCC2)Cc2ccc(C(=O)NO)cc2O1 only.
Outgoing: 6.30 to 7.00

Incoming: Answer with the recorded pIC50 of C[C@@H]1c2ccc(C(=O)NO)cc2OCCN1C(=O)C1(C)CCC1 only.
Outgoing: < 6.30

Incoming: Answer with the recorded pIC50 of COc1ccc(C(=O)N2CCOc3cc(C(=O)NO)ccc3C2)cc1 only.
Outgoing: ≥ 7.00

Incoming: Answer with the recorded pIC50 of C[C@H]1COc2cc(C(=O)NO)ccc2CN1C(=O)c1ccccc1 only.
Outgoing: ≥ 7.00

---

Assign IC50 to each entry below.
- target under test: Full length human recombinant HDAC6 protein (Homo sapiens)
- assay remarks: In vitro histone deacetylase assay: enzymatic HDAC6 electrophoretic mobility shift assay
- applied conditions: 1 nM enzyme, 2 μM peptide substrate RHKK(Ac)-NH2, 25° C., 12 concentrations; read-out: Inhibitory Concentration (IC50) Values against HDAC6, Activity Range

Incoming: Answer with the recorded IC50 of CCCNc1c(C(=O)N2CCOc3cc(C(=O)NO)ccc3C2)sc2ccccc12 only.
Outgoing: ≤ 100 nM

Incoming: Answer with the recorded IC50 of O=C(NO)c1ccc2c(c1)OCCN(C(=O)C1(c3ccccn3)CC1)C2 only.
Outgoing: ≤ 100 nM

Incoming: Answer with the recorded IC50 of O=C(NO)c1ccc2c(c1)OCCN(C(=O)C1(O)CC1)C2 only.
Outgoing: > 500 nM

Incoming: Answer with the recorded IC50 of COc1cccc(C(=O)N2CCOc3cc(C(=O)NO)ccc3C2)c1 only.
Outgoing: 100 to 500 nM

Incoming: Answer with the recorded IC50 of CC(C)C(=O)N1CCOc2cc(C(=O)NO)ccc2C1 only.
Outgoing: ≤ 100 nM

Incoming: Answer with the recorded IC50 of O=C(NO)c1ccc2c(c1)OCCN(C(=O)c1ccc3occc3c1)C2 only.
Outgoing: 100 to 500 nM

Incoming: Answer with the recorded IC50 of O=C(NO)c1ccc2c(c1)OCCN(C(=O)C1(c3ccc(C(F)(F)F)cc3)CC1)C2 only.
Outgoing: ≤ 100 nM

Incoming: Answer with the recorded IC50 of O=C(NO)c1ccc2c(c1)OCCN(C(=O)C1Cc3ccccc3C1)C2 only.
Outgoing: ≤ 100 nM

Incoming: Answer with the recorded IC50 of CC1(C(=O)N2CCOc3cc(C(=O)NO)ccc3C2)COC1 only.
Outgoing: ≤ 100 nM

Incoming: Answer with the recorded IC50 of CC1(C(=O)N2Cc3ccc(C(=O)NO)cc3O[C@@H](c3ccccc3)C2)CCC1 only.
Outgoing: ≤ 100 nM

Incoming: Answer with the recorded IC50 of Cc1cccc(C)c1C(=O)N1CCOc2cc(C(=O)NO)ccc2C1 only.
Outgoing: 100 to 500 nM

Incoming: Answer with the recorded IC50 of COc1ccccc1C(C)(C)C(=O)N1CCOc2cc(C(=O)NO)ccc2C1 only.
Outgoing: > 500 nM
